# Tested on: NCI-H23 lung
# experimental.details: NCI tumour cell line growth inhibition, 48 h
measurement.name: TGI

Look over these answered cases.
{"molecule": "FC(F)(F)c1ccc(C2ON=C(c3ccccc3)N2C23CC4CC(CC(C4)C2)C3)cc1 (stereo not drawn)", "TGI": "> 10 µM"}
{"molecule": "CCOC(=O)N/N=C(/N)c1cccc(Br)c1", "TGI": "> 100 µM"}

Let's switch to this molecule now.
Q) Look up TGI: O=c1[nH]/c(=C/c2ccc3c(c2)OCO3)c(=O)[nH]/c1=C/c1ccc2c(c1)OCO2
A) > 10 µM

----------
# Tested on: SK-MEL-5 melanoma
# experimental.details: NCI tumour cell line growth inhibition, 48 h
measurement.name: TGI

Look over these answered cases.
{"compound": "COc1ccc2[nH]c3c(c2c1)[C@H](c1ccccc1)C[C@@H]1C(=O)N(c2ccccc2)C(=O)[C@H]31", "TGI": "> 100 µM"}
{"compound": "O=C1NC(=NCCc2ccc(F)cc2)S/C1=C\\c1ccc2ncccc2c1", "TGI": "> 25 µM"}
{"compound": "O=C1NC2NC3NC(=O)NC3NC2N1 (stereo not drawn)", "TGI": "> 100 µM"}
{"compound": "O=C1C(c2ccccc2)=C(c2ccccc2)C(c2ccc(Cc3ccc(C4=C(c5ccccc5)C(=O)C(c5ccccc5)=C4c4ccccc4)cc3)cc2)=C1c1ccccc1", "TGI": "> 100 µM"}
{"compound": "COc1nc(N=P(c2ccccc2)(c2ccccc2)c2ccccc2)cc(=O)n1C", "TGI": "> 100 µM"}

Q) Look up TGI: CC(C)(C)OC(=O)NC1CCCC1C(=O)C1=CCCC1 (stereo not drawn)
A) > 100 µM

----------
Listing of entries alongside the reported TGI.
# System: BT-549 breast
# experimental.details: NCI tumour cell line growth inhibition, 48 h

Look over these answered cases.
{"molecule": "CC(C)(O)/C1=C/C=C/CCCCCCCCCC1", "value": "> 100 µM"}
{"molecule": "CC1CC2C3CCC4=CC(=O)C=CC4(C)C3(F)C(O)CC2(C)C1(O)C(=O)COP(=O)(O)O (centres undefined)", "value": "> 500 µM"}
{"molecule": "O=C1CN(c2ccccc2)Cc2nc(Cl)ccc2N1", "value": "> 100 µM"}
{"molecule": "CC(C)C1CNC(=O)C2(C=NC(C(C)C)CNC(=O)C3(C=N1)CCCO3)CCCO2 (centres undefined)", "value": "> 10 µM"}
{"molecule": "O=C1NC2NC3NC(=O)NC3NC2N1 (centres undefined)", "value": "> 100 µM"}

Q) Look up TGI: O=C1Oc2ccccc2C1C/C(=N\Nc1ccccc1)c1ccccc1O (centres undefined)
A) > 100 µM

Q) And for Cc1ccc(S(=O)c2cccs2)cc1 (centres undefined) ?
A) > 100 µM

Q) And for CN=C(N)c1ccc(N=C(N)c2ccc(-c3ccc(C(N)=Nc4ccc(C(N)=NC)cc4)cc3)cc2)cc1 ?
A) > 100 µM

Q) And for CN(C)CCN(C)P12(Oc3ccccc3O1)Oc1c(Cl)c(Cl)c(Cl)c(Cl)c1O2 ?
A) > 100 µM

----------
# Test system: HT29 colon
# experimental.details: NCI tumour cell line growth inhibition, 48 h
measurement.name: TGI

{"molecule": "COc1cc2c(c(OC)c1OC)-c1ccc(SC)c(=O)cc1[C@@H](NCc1ccc(F)cc1)CC2", "TGI": "< 0.0075 µM"}
{"molecule": "FC(F)(F)c1ccc(C2ON=C(c3ccccc3)N2C23CC4CC(CC(C4)C2)C3)cc1 (centres undefined)", "TGI": "> 10 µM"}
{"molecule": "OCC#CCNCl", "TGI": "> 100 µM"}

Let's switch to this molecule now.
Q) Look up TGI: CC1(C)OP(=O)(c2ccccc2)C=C1Sc1ccc([N+](=O)[O-])cc1[N+](=O)[O-] (centres undefined)
A) > 100 µM
